Reference source: patent US10280169B2

Biological target: pBTK (Homo sapiens, UniProt Q06187)
Construct: Heparinized venous blood was purchased from Bioreclamation, Inc. or SeraCare Life Sciences; tissue Bioreclamation, Inc. or SeraCare Life Sciences
Sequence (Q06187 whole entry): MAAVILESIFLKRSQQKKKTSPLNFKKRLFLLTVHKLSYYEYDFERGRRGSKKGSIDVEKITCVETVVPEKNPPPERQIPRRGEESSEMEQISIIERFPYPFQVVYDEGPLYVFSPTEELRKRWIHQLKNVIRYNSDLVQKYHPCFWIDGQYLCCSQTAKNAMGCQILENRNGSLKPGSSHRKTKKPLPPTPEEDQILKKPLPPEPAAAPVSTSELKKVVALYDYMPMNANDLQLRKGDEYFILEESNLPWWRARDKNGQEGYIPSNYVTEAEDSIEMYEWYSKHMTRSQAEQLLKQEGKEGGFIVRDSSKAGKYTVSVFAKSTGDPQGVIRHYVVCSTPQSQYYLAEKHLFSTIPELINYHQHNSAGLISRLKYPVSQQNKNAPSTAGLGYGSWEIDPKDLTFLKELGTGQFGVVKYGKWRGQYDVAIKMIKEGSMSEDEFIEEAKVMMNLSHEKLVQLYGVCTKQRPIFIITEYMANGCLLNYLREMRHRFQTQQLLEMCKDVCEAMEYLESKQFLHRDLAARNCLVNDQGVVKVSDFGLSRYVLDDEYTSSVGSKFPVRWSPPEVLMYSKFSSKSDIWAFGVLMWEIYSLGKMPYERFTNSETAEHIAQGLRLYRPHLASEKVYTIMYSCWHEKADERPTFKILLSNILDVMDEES
Experiment: In vitro PD assay in whole blood (pBTK assay)
Settings: 30 min at 37° C.

{"columns": ["COMPOUND", "IC50"],
 "data": [
  ["Cc1cc(-c2ncnc3cc(-c4cn[nH]c4)[nH]c23)ccc1CNC(=O)c1ncc(C(C)(C)C)s1", "0.5 to 1.5 µM"],
  ["Cc1cc(-c2ncnc3[nH]c(-c4cnn(C)c4)cc23)ccc1CNC(=O)c1cnc(C(C)(C)C)s1", "< 0.5 µM"],
  ["Cc1cc(-c2ncnc3[nH]ccc23)ccc1CNC(=O)c1ccc(C(C)(C)C)cn1", "1.5 to 10 µM"],
  ["Cc1cc(-c2ncnc3cc(C4=CCS(=O)(=O)CC4)[nH]c23)ccc1CNC(=O)c1cnc(C(C)(C)C)s1", "< 0.5 µM"],
  ["CC(C)(C)c1csc(C(=O)NC2CCCc3cc(-c4ncnc5[nH]ncc45)ccc32)n1 (stereo not shown) [Example I-98]", "> 10 µM"],
  ["Cc1cc(-c2ncnc3cc(-c4cnn(C)c4)[nH]c23)ccc1CNC(=O)c1cc2c(s1)CCOC2", "< 0.5 µM"],
  ["CC(C)(C)c1ncc(C(=O)NC(CO)c2ccc(-c3ncnc4[nH]c(C5=CCS(=O)(=O)CC5)cc34)cc2)s1 (stereo not shown)", "1.5 to 10 µM"]
]}

---

Target: pBTK (Homo sapiens)
Construct: Heparinized venous blood was purchased from Bioreclamation, Inc. or SeraCare Life Sciences; tissue Bioreclamation, Inc. or SeraCare Life Sciences
Assay: In vitro PD assay in whole blood (pBTK assay)
Conditions: 30 min at 37° C.
pIC50: −log10 of the molar value.
Listed compounds paired with reported pIC50

{"columns": ["COMPOUND", "ASSAYED_SYSTEM", "pIC50"],
 "data": [
  ["CCn1cc(-c2cc3ncnc(-c4ccc(CNC(=O)c5ncc(C(C)(C)C)s5)c(C)c4)c3[nH]2)cn1 [Example I-40]", "pBTK (Homo sapiens)", "> 6.30"],
  ["Cc1cc(-c2ncnc3[nH]ccc23)ccc1CNC(=O)c1ccc(C(C)(C)C)cc1 [Example I-2]", "pBTK (Homo sapiens)", "5.00 to 5.82"],
  ["Cc1cc(-c2ncnc3[nH]ccc23)ccc1C(C)NC(=O)c1cc2c(s1)CCCC2 (stereo not drawn) [Example I-78]", "pBTK (Homo sapiens)", "5.00 to 5.82"]
]}

---

Molecular target: BTK (Homo sapiens, UniProt Q06187)
Counter-ions that a name gives are not always drawn.
QUANTITY_KIND: IC50

{"columns": ["COMPOUND", "QUANTITY_KIND", "MEASURED_RESULT"],
 "data": [
  ["Cc1cc(-c2ncnc3[nH]c(-c4cnn5c4CNCC5)cc23)ccc1CNC(=O)c1cnc(C(C)(C)C)s1 [Example I-76, hydrochloride]", "IC50", "< 0.01 µM"],
  ["Cc1cc(-c2ncnc3nc(N4CCC(N(C)C)C4)[nH]c23)ccc1CNC(=O)c1cnc(C(C)(C)C)s1 (stereo not drawn) [Example I-50]", "IC50", "< 0.01 µM"],
  ["CC(C)(C)c1ccc(C(=O)NC2CCCc3cc(-c4ncnc5[nH]ccc45)ccc32)nc1 (stereo not drawn) [Example I-15]", "IC50", "0.01 to 0.099 µM"],
  ["Cc1cc(-c2ccnc3[nH]ncc23)ncc1CNC(=O)c1cc2c(s1)CCCC2 [Example I-117]", "IC50", "< 0.01 µM"],
  ["O=C(NCc1ccc(-c2ncnc3[nH]ccc23)cc1C(F)(F)F)c1nc2c(s1)CCCC2 [Example I-122]", "IC50", "0.01 to 0.099 µM"],
  ["Cc1cc(-c2ncnc3cc(-c4cnn(C)c4)[nH]c23)ccc1CNC(=O)c1cc2c(s1)CCOC2 [Example I-42]", "IC50", "< 0.01 µM"],
  ["O=C(NC1CCCc2cc(-c3ncnc4[nH]ncc34)ccc21)c1cc2ccccc2s1 (stereo not drawn) [Example I-120]", "IC50", "< 0.01 µM"],
  ["Cc1cc(-c2ncnc3cc(-c4cnn(C)c4)[nH]c23)ccc1CNC(=O)c1ncc(C(C)(C)C)s1 [Example I-36]", "IC50", "< 0.01 µM"],
  ["CC(C)(C)c1ncc(C(=O)NC(CO)c2ccc(-c3ncnc4[nH]c(C5=CCS(=O)(=O)CC5)cc34)cc2)s1 (stereo not drawn) [Example I-30]", "IC50", "< 0.01 µM"],
  ["Cc1cc(-c2ncnc3sc4c(c23)CCC4)ccc1CNC(=O)c1cnc(C(C)(C)C)s1 [Example I-141]", "IC50", "0.1 to 0.999 µM"],
  ["Cc1cc(-c2ncnc3cc(-c4cnn(C)c4)n(C)c23)ccc1CNC(=O)c1cnc(C(C)(C)C)s1 [Example I-38]", "IC50", "< 0.01 µM"],
  ["CC(C)(C)c1ccc(C(=O)NCc2ccc(-c3ncnc4[nH]ccc34)cc2C(N)=O)nc1 [Example I-7]", "IC50", "1 to 10 µM"],
  ["Cc1cc(-c2ncnc3nc(N4CCC(C(=O)O)CC4)[nH]c23)ccc1CNC(=O)c1cnc(C(C)(C)C)s1 [Example I-52]", "IC50", "< 0.01 µM"],
  ["Cc1nc(-c2ccnc3[nH]ncc23)ccc1CNC(=O)c1cc2c(s1)CCCC2 [Example I-118]", "IC50", "< 0.01 µM"],
  ["Cc1cc(-c2ncnc3nc(N4CCOC(C(=O)O)C4)[nH]c23)ccc1CNC(=O)c1cnc(C(C)(C)C)s1 (stereo not drawn) [Example I-124]", "IC50", "0.01 to 0.099 µM"]
]}
